Biological target: P. falciparum apicoplast DNA polymerase (Pf-apPOL) (Plasmodium falciparum)
Sequence (Q8ILY1 entry or part of it): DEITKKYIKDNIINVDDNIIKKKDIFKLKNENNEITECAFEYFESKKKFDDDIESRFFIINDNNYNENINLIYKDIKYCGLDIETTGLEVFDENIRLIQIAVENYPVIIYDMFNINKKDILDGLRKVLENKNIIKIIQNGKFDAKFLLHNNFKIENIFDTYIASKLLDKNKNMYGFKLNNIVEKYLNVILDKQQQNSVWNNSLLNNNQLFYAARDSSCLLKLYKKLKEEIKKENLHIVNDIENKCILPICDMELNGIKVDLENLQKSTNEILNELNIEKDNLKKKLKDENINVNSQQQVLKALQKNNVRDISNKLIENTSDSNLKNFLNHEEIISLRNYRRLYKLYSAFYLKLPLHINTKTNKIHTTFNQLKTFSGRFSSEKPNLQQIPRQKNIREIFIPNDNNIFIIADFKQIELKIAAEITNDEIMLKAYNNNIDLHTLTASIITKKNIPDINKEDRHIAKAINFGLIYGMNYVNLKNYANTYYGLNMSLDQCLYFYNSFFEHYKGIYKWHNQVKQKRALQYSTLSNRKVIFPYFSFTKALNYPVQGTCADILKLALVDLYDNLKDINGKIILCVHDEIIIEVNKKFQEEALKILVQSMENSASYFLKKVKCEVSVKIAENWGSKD
Experiment: Fluorescence-based high-throughput DNA polymerase assay (molecular beacon), primary screen and dose-response;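 also: test concentration in µM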
Type: biochemical
Settings: DRC-1; 180'; concentration 2.5
Text: The HT assay employs a molecular beacon, a stem-loop DNA template with a Cy3 dye and the Black Hole Quencher on the 3′ and 5′ ends of the DNA, respectively. Pf-apPOL concentration is based on a calculated absorptivity of ε280 = 56750 M^−1 cm^−1. […] To identify apPOL inhibitors we utilised our previously developed high-throughput DNA polymerase assay. […] The assay accurately recapitulates the kinetic behaviour of apPOL, as measured through more conventional low-throughput gel-based assays. […]
experimental readout: % inhibition apPOL 180' (%)
The reply should contain only the number, in %.

Below, 3 molecules whose answers are already recorded.
molecule	target	experimental readout	recorded number
COc1ccc(NC(=O)Cn2ccc3c(=O)[nH]ccc32)cc1Cl [Molecule 10, COc1ccc(cc1Cl)NC(=O)Cn1ccc2c1cc[nH]c2=O]	P. falciparum apicoplast DNA polymerase (Pf-apPOL) (Plasmodium falciparum)	% inhibition apPOL 180'	-4.328
O=[N+]([O-])c1cc2c(cc1CN1CCCCCC1)OCO2	P. falciparum apicoplast DNA polymerase (Pf-apPOL) (Plasmodium falciparum)	% inhibition apPOL 180'	-4.392
COc1ccc(-c2n[nH]cc2Oc2ccc(Cl)cc2)c(O)c1	P. falciparum apicoplast DNA polymerase (Pf-apPOL) (Plasmodium falciparum)	% inhibition apPOL 180'	2.031

Please examine the following record next.
Just so you know, measured % inhibition apPOL 180' for Cc1ccccc1C(=O)N1CCc2c(nc3cc(-c4ccccc4)[nH]n3c2=O)C1 came out at -1.511
